Values were extracted from paper PMC13397619.

B1: NLV2 TCR alpha chain (CDR3α only) (parent)
chain: AGPMKTSYDKVI

Variants of: B1
Test: T-Switch: Jurkat TCRβ−/− cells expressing a CDR3 saturation-mutagenesis library, stained with two peptide-HLA-A*02:01 tetramers (original and novel peptide) plus anti-CD3, FACS-sorted into four gates, gDNA sequenced
Conditions: with both tetramers (double-negative gate, binds neither): HLA-A*02:01 with … and with …, tetramers 1 µg/mL, 30 min on ice, SP, DP and SW gates expanded about 10 days between rounds ('two to three rounds of selection' in the Methods), gate DN: OPPOSITE: higher = more of the variant in the gate that binds neither peptide = LESS binding (or no expression; inferred). Fold enrichment of the CDR3 variant in one FACS gate of a two-tetram, unresolved parent, parent is a CDR3 fragment, scale: fold enrichment, numbering: sequential-on-construct, sequence starts at 1
Record Criterion met whenever enrichment is at 0.9 or higher; record Criterion not met when lower.

**Query** Tell me whether enrichment is at least 0.9 here: […] (CDR3 as printed); S7R derived by comparing it with the table's wild-type CDR3 AGPMKTSYDKVI
**Result** Criterion met

**Query** Dear colleague, could you confirm whether […] (CDR3 as printed); M4C derived by comparing it with the table's wild-type CDR3 AGPMKTSYDKVI has enrichment at or above 0.9?
**Result** Criterion not met

**Query** # check: enrichment of […] (CDR3 as printed); Y8S derived by comparing it with the table's wild-type CDR3 AGPMKTSYDKVI is greater than or equal to 0.9
**Result** Criterion not met

**Query** Tell me whether enrichment is at least 0.9 here: […] (CDR3 as printed); K10F derived by comparing it with the table's wild-type CDR3 AGPMKTSYDKVI
**Result** Criterion met

**Query** Is enrichment at least 0.9? Consider […] (CDR3 as printed); I12N derived by comparing it with the table's wild-type CDR3 AGPMKTSYDKVI
**Result** Criterion met

**Query** Does the reported enrichment for […] (CDR3 as printed); V11M derived by comparing it with the table's wild-type CDR3 AGPMKTSYDKVI fall at or above the 0.9 mark?
**Result** Criterion met

**Query** Decide: is the reported value of enrichment for […] (CDR3 as printed); P3E derived by comparing it with the table's wild-type CDR3 AGPMKTSYDKVI equal to or greater than 0.9?
**Result** Criterion met

**Query** Check if enrichment >= 0.9 (inclusive). Item: […] (CDR3 as printed); D9M derived by comparing it with the table's wild-type CDR3 AGPMKTSYDKVI
**Result** Criterion met
